These data points were gathered from ChEMBL document CHEMBL3400025.

tested on: A549; test: Antiproliferative activity against human A549 cells assessed as inhibition of cell growth after 48 hrs by MTT assay; format: functional, cell-based; conditions: A549, 48 h
Entries and their IC50 values follow.

                                   molecule    result
0  C[C@]12C/C(=C/O)C(=O)C=C1CC[C@@H]1[C@@H]2CC[C@]2(C)/C(=C/c3ccccn3)CC[C@@H]12  > 100 µM
1  C[C@]12C/C(=N/O)C(=O)C=C1CC[C@@H]1[C@@H]2CC[C@@]2(C)[C@H]1CC[C@@]2(O)Cc1ccccn1  > 100 µM
2  C[C@]12CCC(=O)C=C1CC[C@@H]1[C@@H]2CC[C@]2(C)/C(=C/c3ccccn3)CC[C@@H]12  > 100 µM

Q: Quick check: IC50 of "C[C@]12CC[C@H](O)CC1=CC[C@@H]1[C@@H]2CC[C@]2(C)/C(=C/c3ccccn3)CC[C@@H]12" ?
Result: > 100 µM
